biological target: human opioid μ receptor (Homo sapiens, UniProt P35372); construct: host or cells: CHO cells; assay: Opioid receptor function test (Lance Ultra cAMP Kit), μ receptor; assay type: cell-based; conditions: read-out: μ receptor Emax (*reaction rate at the highest concentration, reference value)
Sequence (P35372 whole entry): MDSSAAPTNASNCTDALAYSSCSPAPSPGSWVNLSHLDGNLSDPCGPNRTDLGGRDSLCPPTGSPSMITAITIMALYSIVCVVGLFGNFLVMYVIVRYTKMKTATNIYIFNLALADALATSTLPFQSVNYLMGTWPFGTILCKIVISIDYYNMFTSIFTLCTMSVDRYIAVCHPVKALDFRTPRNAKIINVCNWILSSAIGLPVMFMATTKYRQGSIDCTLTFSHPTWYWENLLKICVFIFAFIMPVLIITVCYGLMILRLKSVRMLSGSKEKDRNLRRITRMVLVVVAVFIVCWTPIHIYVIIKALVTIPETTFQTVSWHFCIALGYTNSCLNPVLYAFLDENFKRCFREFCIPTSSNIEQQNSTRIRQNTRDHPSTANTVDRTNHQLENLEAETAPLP
Counter-ions that a name gives are not always drawn.
MEASUREMENT_LABEL: Emax (%)
Give just the number in %; leave the unit off.

Please report Emax for the following compound: O=C([C@H]1CCCCN1)N1C[C@H]2C[C@@]34CC[C@@H]1[C@@H]2[C@@]31CCN(CC2CC2)[C@@H]4Cc2ccc(O)cc21 [Example 4, dihydrochloride] 0.87

Please report Emax for the following compound: O=C([C@H]1CCCN1)N1C[C@H]2C[C@@]34CC[C@@H]1[C@@H]2[C@@]31CCN(CC2CC2)[C@@H]4Cc2ccc(O)cc21 [Example 2, dihydrochloride] 3.8

Please report Emax for the following compound: O=C([C@H]1CCCNC1)N1C[C@H]2C[C@@]34CC[C@@H]1[C@@H]2[C@@]31CCN(CC2CC2)[C@@H]4Cc2ccc(O)cc21 [Example 6, dihydrochloride] 5.5

Please report Emax for the following compound: `CN1CCC[C@@H]1C(=O)N1C[C@H]2C[C@@]34CC[C@@H]1[C@@H]2[C@@]31CCN(CC2CC2)[C@@H]4Cc2ccc(O)cc21` -0.6

###

Biological target: human opioid κ receptor (Homo sapiens)
Construct: host or cells: CHO cells
Sequence (P41145 whole entry): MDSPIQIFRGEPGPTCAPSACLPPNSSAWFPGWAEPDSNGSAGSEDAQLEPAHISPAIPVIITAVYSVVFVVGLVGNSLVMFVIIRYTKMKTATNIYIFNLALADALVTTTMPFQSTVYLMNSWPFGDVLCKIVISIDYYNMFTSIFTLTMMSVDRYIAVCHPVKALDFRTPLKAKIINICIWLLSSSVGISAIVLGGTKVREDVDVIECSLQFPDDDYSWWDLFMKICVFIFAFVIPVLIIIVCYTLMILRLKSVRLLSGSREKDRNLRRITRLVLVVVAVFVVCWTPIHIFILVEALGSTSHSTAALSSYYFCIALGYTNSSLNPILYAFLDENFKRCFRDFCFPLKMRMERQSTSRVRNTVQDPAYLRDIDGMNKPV
Experiment: Opioid receptor function test (Lance Ultra cAMP Kit), κ receptor
Format: cell-based
Conditions: read-out: κ receptor Emax (*reaction rate at the highest concentration, reference value)
Method: Opioid Receptor Function Test The functional activities of the compounds provided by the present invention on the μ, δ, and κ opioid receptors were investigated. The test was performed by using Lance Ultra cAMP Kit (PerkinElmer) according to a method predetermined for the kit. […] Subsequently, the cAMP detection reagent included in the kit was added, and 1 hour afterward, time-resolved fluorescence measurement was performed by using the EnVision plate reader (PerkinElmer). […]
Structures can show the parent of a compound that is named as a salt.
MEASUREMENT_LABEL: Emax (%)
Give just the number in %; leave the unit off.

Please report Emax for the following compound: O=C([C@H]1CCCO1)N1C[C@H]2CC34CCC1C2C31CCN(CC2CC2)C4Cc2ccc(O)cc21 (stereo partly shown) 8.7

Please report Emax for the following compound: `CN1CCC[C@@H]1C(=O)N1C[C@H]2C[C@@]34CC[C@@H]1[C@@H]2[C@@]31CCN(CC2CC2)[C@@H]4Cc2ccc(O)cc21` 3.7

Please report Emax for the following compound: O=C([C@H]1CCCN1)N1C[C@H]2C[C@@]34CC[C@@H]1[C@@H]2[C@@]31CCN(CC2CC2)[C@@H]4Cc2ccc(O)cc21 [Example 2, dihydrochloride] 3.8

Please report Emax for the following compound: O=C([C@H]1CCCCN1)N1C[C@H]2C[C@@]34CC[C@@H]1[C@@H]2[C@@]31CCN(CC2CC2)[C@@H]4Cc2ccc(O)cc21 [Example 4, dihydrochloride] 5

###

assay: Intracerebral migration test (concentration in cerebrospinal fluid and plasma); assay type: in vivo; conditions: male, Wistar, cerebrospinal fluid, sc; rat, 3 mg/kg s.c., 30 minutes after administration; read-out: Concentration in cerebrospinal fluid
MEASUREMENT_LABEL: concentration at 30 min
Answer by giving the amount and then stating its unit.

Please report concentration at 30 min for the following molecule: O=C([C@H]1CCCO1)N1C[C@H]2CC34CCC1C2C31CCN(CC2CC2)C4Cc2ccc(O)cc21 (stereo partly shown) 42 nM

Where do these numbers come from? They come from patent US20210371422A1.
